target: P450 3A5 (Homo sapiens, UniProt P20815); construct: 4-histidine tag (C); made in house; host or cells: Escherichia coli; assay: Type 1 spectral shift equilibrium binding to P450 3A5; settings: type 1 spectral shift, sigmoidal curve, nominal 4 μM 3A5, n = 4; read-out: Kd (Hill equation fit)
Sequence (P20815 with tags, fused parts or gaps limits assumed): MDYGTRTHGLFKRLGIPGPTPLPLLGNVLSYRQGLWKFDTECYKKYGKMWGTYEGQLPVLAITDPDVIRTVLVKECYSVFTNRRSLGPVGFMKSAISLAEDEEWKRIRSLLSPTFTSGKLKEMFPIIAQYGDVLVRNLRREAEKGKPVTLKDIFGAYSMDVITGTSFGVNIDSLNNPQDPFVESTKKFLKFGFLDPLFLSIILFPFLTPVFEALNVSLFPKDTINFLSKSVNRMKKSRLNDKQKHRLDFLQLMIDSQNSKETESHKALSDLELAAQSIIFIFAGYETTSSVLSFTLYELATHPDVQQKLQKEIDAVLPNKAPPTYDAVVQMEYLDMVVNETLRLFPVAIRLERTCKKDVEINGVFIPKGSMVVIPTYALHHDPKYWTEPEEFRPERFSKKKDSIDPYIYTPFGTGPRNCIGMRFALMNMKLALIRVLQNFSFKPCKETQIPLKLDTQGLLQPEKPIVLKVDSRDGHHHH
Attribute Measured: pKd
The value called pKd is obtained by taking minus log10 of the concentration in mol/L.

Quick check: pKd of CC[C@]1(C)C[C@@H](OC(=O)CSc2n[nH]c(N)n2)[C@]2(C)[C@H](C)CC[C@]3(CCC(=O)[C@H]32)[C@@H](C)[C@@H]1O ?
5.15

* * *

biological target: P450 3A5 (Homo sapiens); construct: 4-histidine tag (C); made in house; host or cells: Escherichia coli; assay: Type 1 spectral shift equilibrium binding to P450 3A5; details: type 1 spectral shift, one-site binding (Equation 2; tiamulin Equation 3)
Attribute Measured: ΔAmax/[P450]
Response field accepts a number only; no unit should be typed.

Compound	Measured Target	Attribute Measured	Observed Measurement
C=C[C@]1(C)C[C@@H](OC(=O)CS[C@@H]2CC[C@@H](N)C[C@H]2O)[C@]2(C)[C@H](C)CC[C@]3(CCC(=O)[C@H]32)[C@@H](C)[C@@H]1O [Lefamulin]	P450 3A5 (Homo sapiens)	ΔAmax/[P450]	0.06
C=C[C@]1(C)C[C@@H](OC(=O)CS[C@@H]2C[C@H]3CC[C@@H](C2)N3C)[C@]2(C)[C@H](C)CC[C@]3(CCC(=O)[C@H]32)[C@@H](C)[C@@H]1O [Retapamulin]	P450 3A5 (Homo sapiens)	ΔAmax/[P450]	0.09
C=C[C@]1(C)C[C@@H](OC(=O)CSCCN(CC)CC)[C@]2(C)[C@H](C)CC[C@]3(CCC(=O)[C@H]32)[C@@H](C)[C@@H]1O [Tiamulin]	P450 3A5 (Homo sapiens)	ΔAmax/[P450]	0.08

Now consider a different compound.
Quick check: ΔAmax/[P450] of C=C[C@]1(C)C[C@@H](OC(=O)CO)[C@]2(C)[C@H](C)CC[C@]3(CCC(=O)[C@H]32)[C@@H](C)[C@@H]1O [Pleuromutilin] ?
0.12

* * *

molecular target: P450 3A5 (Homo sapiens, UniProt P20815); construct: 4-histidine tag (C); made in house; host or cells: Escherichia coli; experiment: Type 1 spectral shift equilibrium binding to P450 3A5; conditions: 3A5 binding isotherm
Attribute Measured: concentration dependence of type 1 spectral shift (shape of binding curve)

Molecule	Observed Measurement
C=C[C@]1(C)C[C@@H](OC(=O)CS[C@@H]2C[C@H]3CC[C@@H](C2)N3C)[C@]2(C)[C@H](C)CC[C@]3(CCC(=O)[C@H]32)[C@@H](C)[C@@H]1O [Retapamulin]	hyperbolic
C=C[C@]1(C)C[C@@H](OC(=O)CO)[C@]2(C)[C@H](C)CC[C@]3(CCC(=O)[C@H]32)[C@@H](C)[C@@H]1O [Pleuromutilin]	hyperbolic
C=C[C@]1(C)C[C@@H](OC(=O)CS[C@@H]2CC[C@@H](N)C[C@H]2O)[C@]2(C)[C@H](C)CC[C@]3(CCC(=O)[C@H]32)[C@@H](C)[C@@H]1O [Lefamulin]	hyperbolic
C=C[C@]1(C)C[C@@H](OC(=O)CSCCN(CC)CC)[C@]2(C)[C@H](C)CC[C@]3(CCC(=O)[C@H]32)[C@@H](C)[C@@H]1O [Tiamulin]	hyperbolic

Data origin: paper PMC9079302
